biological target: α7-5HT3 Q79G Q139G (Homo sapiens, UniProt P36544, M226I/Q139G/Q79G/T225I); construct: expressed in transfected cells; experiment: whole cell voltage clamp recordings (Iss, Ipeak); assay type: cell-based, human/mouse; details: peak current, IPD 5HT3, read-out: EC50-Ipeak
Sequence (P36544 with tags, fused parts or gaps Q79G/Q139G/T225I/M226I): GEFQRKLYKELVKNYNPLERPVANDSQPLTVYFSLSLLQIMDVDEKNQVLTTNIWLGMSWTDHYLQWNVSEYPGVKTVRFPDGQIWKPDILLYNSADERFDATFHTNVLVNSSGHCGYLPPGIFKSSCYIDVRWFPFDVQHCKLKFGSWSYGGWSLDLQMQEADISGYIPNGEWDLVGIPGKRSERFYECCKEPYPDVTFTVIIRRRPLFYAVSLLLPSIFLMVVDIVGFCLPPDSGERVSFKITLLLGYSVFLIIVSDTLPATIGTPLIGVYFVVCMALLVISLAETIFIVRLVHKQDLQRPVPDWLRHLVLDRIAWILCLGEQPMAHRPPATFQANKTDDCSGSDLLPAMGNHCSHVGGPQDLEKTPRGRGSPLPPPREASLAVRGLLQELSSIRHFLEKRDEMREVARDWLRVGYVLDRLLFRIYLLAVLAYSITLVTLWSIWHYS

COMPOUND	EC50, µM
O=C(N[C@@H]1CN2CCC1CC2)c1ccc(C(F)(F)F)cc1 [Compound 22S]	11.6

====

molecular target: α7-GlyR L141F Y115F (Homo sapiens, UniProt P36544, L141F/Y115F); construct: expressed in transfected cells; layer 2/3 cortical neurons (A20); experiment: whole cell voltage clamp recordings (Iss, Ipeak); assay type: cell-based; details: EC50-Ipeak, peak current, IPD GlyR
Sequence (P36544 with tags, fused parts or gaps Y115F/L141F): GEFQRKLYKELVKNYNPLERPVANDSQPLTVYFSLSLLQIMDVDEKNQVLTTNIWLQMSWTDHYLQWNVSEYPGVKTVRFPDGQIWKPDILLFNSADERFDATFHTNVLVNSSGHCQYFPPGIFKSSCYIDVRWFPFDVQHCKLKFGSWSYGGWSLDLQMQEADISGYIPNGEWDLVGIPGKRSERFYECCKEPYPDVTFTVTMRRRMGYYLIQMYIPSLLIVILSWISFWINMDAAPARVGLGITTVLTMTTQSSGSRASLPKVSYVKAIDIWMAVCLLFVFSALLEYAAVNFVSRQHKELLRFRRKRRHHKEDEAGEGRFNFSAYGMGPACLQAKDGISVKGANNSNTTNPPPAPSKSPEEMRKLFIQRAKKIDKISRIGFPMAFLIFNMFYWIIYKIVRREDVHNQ

COMPOUND	EC50 [µM]
COc1ccc(OC)c(C(=O)N[C@@H]2CN3CCC2CC3)c1 [Compound 89S]	6.9
